Data origin: patent US20200199204A1

system_name: HIV-1 Env of ZM135.10a (HIV-1)
assay_text: cell-based or functional assay
# neutralization IC50 per record follows
observable: neutralization IC50

[[record]]
binder = "CAP256-VRC26.10 (antibody, V domains shown) VH: QAILVESGGGVVQPGRSLRLSCAASQFTFSGHGLHWVRQAPGKGLEWVASISFAGTKMDYADSVKGRFAISRDNSKNTLYLQMNSLRVEDTALYYCAKDMREYECEYWTSDYYDFGRPQPCIDRRGVVGIFDMWGQGTMVTVST VL: QSVLTQPPSVSAAPGQKVTISCSGSSSNIGDNYVSWYQHLPGTAPKLLIYENTRRPSGIPDRFSGSKSGTSATLAITGLQTGDEADYYCGTWDVRPNRGAVFGTGTKVTVLG"
observable = "neutralization IC50"
result_value = "> 50 µg/mL"

[[record]]
binder = "CAP256-VRC26.06 (antibody, V domains shown) VH: EVQLIESGGGVVQPGRSLRLSCGASGFSFNNYGMHWVRQAPGKGLEWVAGISFAGIKKYYGTSVKGRFTISRDNSKNNFYLQMNSLRVEDTALYYCARDLRELECEEWTLYNYYDFGSRGPCVDPRGVAGSFDVWGQGTMVTVSS VL: QSVLTQPPSVSAAPGQKVTISCSGSTSKIGQNSVSWYQQLPGTAPKLLIYENDRRPSGTPDRFSGSKSGTSATLAITGLQTGDEAEYYCETWDGSGGVFGTGTKVTVLG"
observable = "neutralization IC50"
result_value = "> 50 µg/mL"

